test system: HTT; test: RT-qPCR canonical junction panel assay, HTT; type: cell-based; conditions: gene panel, read-out: HTT IC50 (decrease in CJ mRNA levels)
pIC50: −log10 of the molar value.
readout: pIC50

> print(dat)
                               smiles.record  readout           val
 1  Cc1cn2cc(-c3nn4c(=O)cc(N(C)C5CC(C)(C)NC(C)(C)C5)nc4s3)cc(F)c2n1    pIC50  5.00 to 6.00
 2  Cc1cn2cc(-c3cc(=O)n4cc(N5CCNC6(CC6)C5)sc4n3)cc(F)c2n1    pIC50        < 5.00
 3  Cc1cc(-c2cn3c(=O)cc(N4CCN(C)CC4)nc3s2)cc2cn(C)nc12    pIC50        < 5.00
 4  Cc1cn2cc(-n3cnc4nc(N5CCN(C)CC5)sc4c3=O)cc(C(F)(F)F)c2n1    pIC50        < 5.00
 5  Cc1cn2cc(-c3nc4ncn(C5CCNCC5)c(=O)c4s3)cc(F)c2n1    pIC50        > 7.00
 6  Cc1cn2cc(-c3cn4c(=O)cc(N5CCNCC5)nc4s3)cc(F)c2n1    pIC50        < 5.00
 7  Cc1cc(-c2nc3ncn(C4CCN(C)CC4)c(=O)c3s2)cc2cn(C)nc12    pIC50  6.00 to 7.00
 8  Cc1cn2cc(-n3cnc4nc(N5CCN(C)CC5)sc4c3=O)cc(F)c2n1    pIC50  5.00 to 6.00
 9  Cc1cn2nc(-c3cc(=O)n4cc(N5CCNC6(CC6)C5)sc4n3)cc(C)c2n1    pIC50  5.00 to 6.00
10  CN1CCN(c2nc3ncn(-c4ccc5nn(C)cc5c4)c(=O)c3s2)CC1    pIC50  5.00 to 6.00
11  Cc1cn2cc(-c3cn4c(=O)cc(N5CCNC6(CC6)C5)nc4s3)cc(F)c2n1    pIC50  5.00 to 6.00
12  Cc1cn2cc(-c3cc(=O)n4nc(N5CCN(C)CC5)sc4n3)cc(F)c2n1    pIC50  5.00 to 6.00
13  Cc1cn2cc(-n3cnc4nc(N5CCNCC5)sc4c3=O)cc(F)c2n1    pIC50  6.00 to 7.00
14  Cc1cn2nc(-c3cc(=O)n4cc(N(C)C5CC(C)(C)NC(C)(C)C5)sc4n3)cc(C)c2n1    pIC50  5.00 to 6.00
15  Cc1cc(-c2nn3c(=O)cc(N4CCNCC4)nc3s2)cc2cn(C)nc12    pIC50  5.00 to 6.00
16  Cc1cn2cc(-n3cnc4nc(N(C)C5CC(C)(C)NC(C)(C)C5)sc4c3=O)cc(F)c2n1    pIC50        < 5.00
17  Cc1cn2cc(-c3nn4c(=O)cc(N5CCNC6(CC6)C5)nc4s3)cc(F)c2n1    pIC50  5.00 to 6.00
18  Cc1cn2cc(-c3cn4c(=O)cc(N5CCN(C)CC5)nc4s3)cc(F)c2n1    pIC50        < 5.00
19  Cc1cc(-c2cc3ncn(C4CCN(C)CC4)c(=O)c3s2)cc2cn(C)nc12    pIC50  6.00 to 7.00
20  Cc1cn2cc(-c3cc(=O)n4nc(N5CCNC6(CC6)C5)sc4n3)cc(F)c2n1    pIC50  5.00 to 6.00
21  Cc1cc(-c2cc(=O)n3nc(N4CCN(C)CC4)sc3n2)cc2cn(C)nc12    pIC50        < 5.00
22  Cc1cc(-c2nn3c(=O)cc(N4CCN(C)CC4)nc3s2)cc2cn(C)nc12    pIC50  5.00 to 6.00
23  Cc1cn2cc(-c3cc4ncn(C5CCNCC5)c(=O)c4s3)cc(F)c2n1    pIC50        > 7.00
24  Cc1cn2nc(-c3cc4ncn(C5CCN(C)CC5)c(=O)c4s3)cc(C)c2n1    pIC50  5.00 to 6.00
25  Cc1cn2cc(-c3nn4c(=O)cc(N5CCNCC5)nc4s3)cc(F)c2n1    pIC50  5.00 to 6.00
26  Cc1cn2cc(-c3nn4c(=O)cc(N5CCN(C)C6(CC6)C5)nc4s3)cc(F)c2n1    pIC50  5.00 to 6.00
27  Cc1cn2cc(-c3nn4c(=O)cc(N5CCN(C)CC5)nc4s3)cc(F)c2n1    pIC50  5.00 to 6.00
28  Cc1cn2nc(-c3cc4ncn(C5CCNCC5)c(=O)c4s3)cc(C)c2n1    pIC50  6.00 to 7.00
29  Cc1cc(-c2cc(=O)n3cc(N4CCN(C)CC4)sc3n2)cc2cn(C)nc12    pIC50        < 5.00
30  Cc1cc(-c2nc3ncn(C4CCNCC4)c(=O)c3s2)cc2cn(C)nc12    pIC50        > 7.00
31  Cc1cn2nc(-c3cn4c(=O)cc(N5CCNC6(CC6)C5)nc4s3)cc(C)c2n1    pIC50  5.00 to 6.00
32  Cc1cn2cc(-n3cnc4nc(N5CCNCC5)sc4c3=O)cc(C(F)(F)F)c2n1    pIC50        < 5.00
33  Cn1cc2cc(-n3cnc4nc(N5CCNCC5)sc4c3=O)ccc2n1    pIC50        < 5.00
34  Cc1cc(-c2cc3ncn(C4CCNCC4)c(=O)c3s2)cc2cn(C)nc12    pIC50        > 7.00
35  Cc1cn2nc(-c3nc4ncn(C5CCNCC5)c(=O)c4s3)cc(C)c2n1    pIC50  6.00 to 7.00
